# System: COLO 205 colon
# PROTOCOL TEXT: NCI tumour cell line growth inhibition, 48 h
Listed here are compounds together with their documented GI50.

Some solved cases for reference:
[
  {
    "COMPOUND": "C#Cc1cccc(Nc2nc3cc([N+](=O)[O-])ccc3nc2Nc2ccc(O)cc2)c1",
    "RECORDED ENDPOINT": "GI50",
    "VAL": "1.9 µM"
  },
  {
    "COMPOUND": "Cc1cc(Nc2ccc(C)c(Cl)c2)n2nc(C(F)(F)F)nc2n1",
    "RECORDED ENDPOINT": "GI50",
    "VAL": "23.5 µM"
  },
  {
    "COMPOUND": "CC(=O)N[C@@H](Cc1ccc(OP(=O)(O)O)cc1)C(=O)N[C@H]1CCC(=O)N2CCC[C@@H](C(=O)Nc3cccc4ccccc34)N2C1=O",
    "RECORDED ENDPOINT": "GI50",
    "VAL": "> 25 µM"
  },
  {
    "COMPOUND": "Cc1nnc2ccnn2c1C",
    "RECORDED ENDPOINT": "GI50",
    "VAL": "> 100 µM"
  },
  {
    "COMPOUND": "NCCNCCNCCN",
    "RECORDED ENDPOINT": "GI50",
    "VAL": "> 100 µM"
  }
]

[ask] Read off the recorded GI50 for Cc1ccc(NC2=C3CCCCC3OC2=O)cc1 (configuration not stated)
[reply] 78.1 µM

[ask] Specify measured GI50 for COC(=O)[C@]12CC[C@@H](C)[C@H](C)[C@@H]1C1=CC[C@@H]3[C@@]4(C)C[C@@H](O)[C@H](O)[C@@](C)(CO)[C@@H]4[C@H](O)C[C@@]3(C)[C@]1(C)CC2 .
[reply] 14.8 µM
